molecular target: UniProt:P31645; test: hSERT fluorometric screening assay (APP+ uptake, hSERT-HEK cells); type: cell-based; settings: average ± SEM, n ≥ 4; read-out: IC50 SERT [μM ± SEM]
Exercise: for every item that follows, state its recorded IC50.
Give the value in µM but do not write µM after it.

(Q) Kindly indicate its recorded IC50. Item: CN1CCc2oc3ccccc3c2CC1 [drawing 166]
(A) 1.4

(Q) Assign IC50 to the following record: c1ccc2c3c(oc2c1)CCNCC3 [drawing 165]
(A) 0.45

(Q) Identify measured IC50 associated with c1ccc2c3c(oc2c1)CCCNC3 [drawing 167]
(A) 11

(Q) Complete the entry with IC50 for CN1CCCc2oc3ccccc3c2C1 [drawing 168]
(A) 7.1

###

target: 5-HT2B (Homo sapiens (Human)); assay: 5-HT2B agonist (IP1) assay, CHO cells (commercial); format: cell-based; conditions: CHO; Table 2; at 10 μM; read-out: % of control agonist maximal response (5-HT2B)
Sequence (P41595 whole entry): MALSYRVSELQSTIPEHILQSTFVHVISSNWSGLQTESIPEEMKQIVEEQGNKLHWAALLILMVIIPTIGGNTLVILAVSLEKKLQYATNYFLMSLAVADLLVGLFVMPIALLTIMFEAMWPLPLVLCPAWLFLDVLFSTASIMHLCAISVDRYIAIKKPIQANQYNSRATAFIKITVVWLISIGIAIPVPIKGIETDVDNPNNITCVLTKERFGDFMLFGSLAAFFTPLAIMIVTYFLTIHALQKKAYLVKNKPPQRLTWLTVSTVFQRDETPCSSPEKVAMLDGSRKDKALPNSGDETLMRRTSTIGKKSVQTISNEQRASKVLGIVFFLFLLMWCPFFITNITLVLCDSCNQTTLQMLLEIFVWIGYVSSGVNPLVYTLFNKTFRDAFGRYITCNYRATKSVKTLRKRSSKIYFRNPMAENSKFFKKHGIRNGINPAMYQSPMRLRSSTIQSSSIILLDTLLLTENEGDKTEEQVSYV
Assignment: determine reported Emax at 10 µM for the given compounds.
Return type: number; implicit unit %.

(Q) Determine its reported Emax at 10 µM: c1ccc2c3c(oc2c1)CCCNC3 [drawing 163]
(A) 22

(Q) Supply recorded Emax at 10 µM for CN1CCCc2oc3ccccc3c2C1 [drawing 164] here.
(A) 3

(Q) Provide only the value of recorded Emax at 10 µM for CN1CCc2oc3ccccc3c2CC1 [drawing 162]
(A) 4

(Q) Please report Emax at 10 µM for the following compound: c1ccc2c3c(oc2c1)CCNCC3 [drawing 161]
(A) 20

###

target: 5-HT2B (Homo sapiens (Human)); assay: 5-HT2B agonist (IP1) assay, CHO cells (commercial); type: cell-based; conditions: Table 4; IP1 agonist assay
reported_property: pEC50
pEC50 is defined as minus the log10 of a concentration measured in mol/L.

(Q) Return pEC50 (reported value) for this molecule: Oc1ccc2oc3c(c2c1)CCN1CCCC3C1 (centres unmarked) [drawing 171]
(A) 6.40

###

biological target: KOR (Rattus norvegicus (Rat), UniProt P34975); test: KOR agonist (cAMP) assay, CHO cells (commercial); assay type: cell-based; conditions: CHO; Table 2; at 10 μM; read-out: % of control agonist maximal response (KOR)
reported_property: Emax at 10 µM
Give your result as the value with the unit written after it.

(Q) For KOR (Rattus norvegicus (Rat), UniProt P34975), give the measured Emax at 10 µM of the entry CN1CCc2oc3ccccc3c2CC1 [drawing 162]
(A) 36%

(Q) Give the observed Emax at 10 µM of c1ccc2c3c(oc2c1)CCCNC3 [drawing 163] for KOR (Rattus norvegicus (Rat), UniProt P34975).
(A) 45%

(Q) // output Emax at 10 µM; input CN1CCCc2oc3ccccc3c2C1 [drawing 164] ; system KOR (Rattus norvegicus (Rat), UniProt P34975)
(A) 47%

(Q) Answer briefly: Emax at 10 µM recorded on KOR (Rattus norvegicus (Rat), UniProt P34975) for c1ccc2c3c(oc2c1)CCNCC3 [drawing 161]
(A) 36%

###

molecular target: mouse MOR (mMOR) (Mus musculus (Mouse), UniProt P42866); test: G-protein BRET functional opioid assay, MOR; format: cell-based
Sequence (P42866 whole entry, looked up): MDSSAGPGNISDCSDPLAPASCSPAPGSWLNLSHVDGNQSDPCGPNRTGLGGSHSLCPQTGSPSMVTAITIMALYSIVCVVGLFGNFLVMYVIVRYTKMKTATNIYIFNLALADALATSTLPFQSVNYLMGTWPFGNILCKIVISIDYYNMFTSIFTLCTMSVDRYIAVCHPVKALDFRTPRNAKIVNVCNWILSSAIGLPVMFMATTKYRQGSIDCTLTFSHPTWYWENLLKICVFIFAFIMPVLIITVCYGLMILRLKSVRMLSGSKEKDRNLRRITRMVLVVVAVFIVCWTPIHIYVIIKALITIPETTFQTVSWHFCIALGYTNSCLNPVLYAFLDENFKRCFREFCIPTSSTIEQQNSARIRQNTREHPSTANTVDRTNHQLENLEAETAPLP
What EC50 was measured for each of the following?
Just the number in nM, nothing appended.

(Q) Input Oc1ccc2oc3c(c2c1)CCN1CCCC3C1 (stereo not drawn) [drawing 175] , output reported EC50.
(A) 110

(Q) Complete the entry with EC50 for CC1Cc2oc3ccc(O)cc3c2CCN1C (stereo not drawn)
(A) 320

(Q) Consider the compound CC1Cc2oc3ccc(O)cc3c2CCN1 (stereo not drawn) [drawing 173] and give its recorded EC50.
(A) 200

###

biological target: UniProtKB P28223; experiment: 5-HT2A agonist (IP1) assay, HEK-293 cells (commercial); assay type: cell-based; conditions: Table 2; IP1 agonist assay
reported_property: EC50

(Q) State EC50 (UniProtKB P28223) of CN1CCCc2oc3ccccc3c2C1 [drawing 164] .
(A) > 10 µM

(Q) Please look at CN1CCc2oc3ccccc3c2CC1 [drawing 162] and tell me its recorded EC50 on UniProtKB P28223.
(A) > 10 µM

(Q) GET EC50 where system = UniProtKB P28223 and item = c1ccc2c3c(oc2c1)CCNCC3 [drawing 161]
(A) ~1 µM

(Q) Return reported EC50 for target or system UniProtKB P28223, item c1ccc2c3c(oc2c1)CCCNC3 [drawing 163] .
(A) ~60 µM

###

molecular target: 5-HT2A (Homo sapiens (Human)); experiment: 5-HT2A agonist (IP1) assay, HEK-293 cells (commercial); format: cell-based; conditions: Table 4; IP1 agonist assay
What pEC50 was measured for each of the following?
Keep in mind that pEC50 stands for -log10 of concentration in molar terms.

(Q) Provide measured pEC50 value, entry: CC1Cc2oc3ccc(O)cc3c2CCN1 (stereo not drawn) [drawing 170]
(A) 5.72

(Q) Write down pEC50 measured for item Oc1ccc2oc3c(c2c1)CCNCC3 [drawing 169]
(A) 6.22

###

Kindly supply the reported EC50 values for the records listed here.
biological target: KOR (Rattus norvegicus (Rat), UniProt P34975); test: KOR agonist (cAMP) assay, CHO cells (commercial); assay type: cell-based; settings: Table 2; cAMP agonist assay, rat KOR, CHO

(Q) Complete the entry with EC50 for c1ccc2c3c(oc2c1)CCNCC3 [drawing 161]
(A) ~1.2 µM

(Q) Answer with reported EC50 of c1ccc2c3c(oc2c1)CCCNC3 [drawing 163]
(A) ~4.4 µM

(Q) // Input: CN1CCc2oc3ccccc3c2CC1 [drawing 162] . Output its EC50 only.
(A) ~4.2 µM

(Q) Supply measured EC50 of CN1CCCc2oc3ccccc3c2C1 [drawing 164] in your reply.
(A) ~3 µM

###

target: hERG (Homo sapiens (Human)); assay: hERG radioligand ([3H]Dofetilide) displacement binding assay (commercial); details: human, HEK-293 cells expressing hERG, probe [3H]Dofetilide; Table 4; efficacy at 30 μM; read-out: % inhibition of control specific binding (hERG)
Sequence (Q12809 whole entry): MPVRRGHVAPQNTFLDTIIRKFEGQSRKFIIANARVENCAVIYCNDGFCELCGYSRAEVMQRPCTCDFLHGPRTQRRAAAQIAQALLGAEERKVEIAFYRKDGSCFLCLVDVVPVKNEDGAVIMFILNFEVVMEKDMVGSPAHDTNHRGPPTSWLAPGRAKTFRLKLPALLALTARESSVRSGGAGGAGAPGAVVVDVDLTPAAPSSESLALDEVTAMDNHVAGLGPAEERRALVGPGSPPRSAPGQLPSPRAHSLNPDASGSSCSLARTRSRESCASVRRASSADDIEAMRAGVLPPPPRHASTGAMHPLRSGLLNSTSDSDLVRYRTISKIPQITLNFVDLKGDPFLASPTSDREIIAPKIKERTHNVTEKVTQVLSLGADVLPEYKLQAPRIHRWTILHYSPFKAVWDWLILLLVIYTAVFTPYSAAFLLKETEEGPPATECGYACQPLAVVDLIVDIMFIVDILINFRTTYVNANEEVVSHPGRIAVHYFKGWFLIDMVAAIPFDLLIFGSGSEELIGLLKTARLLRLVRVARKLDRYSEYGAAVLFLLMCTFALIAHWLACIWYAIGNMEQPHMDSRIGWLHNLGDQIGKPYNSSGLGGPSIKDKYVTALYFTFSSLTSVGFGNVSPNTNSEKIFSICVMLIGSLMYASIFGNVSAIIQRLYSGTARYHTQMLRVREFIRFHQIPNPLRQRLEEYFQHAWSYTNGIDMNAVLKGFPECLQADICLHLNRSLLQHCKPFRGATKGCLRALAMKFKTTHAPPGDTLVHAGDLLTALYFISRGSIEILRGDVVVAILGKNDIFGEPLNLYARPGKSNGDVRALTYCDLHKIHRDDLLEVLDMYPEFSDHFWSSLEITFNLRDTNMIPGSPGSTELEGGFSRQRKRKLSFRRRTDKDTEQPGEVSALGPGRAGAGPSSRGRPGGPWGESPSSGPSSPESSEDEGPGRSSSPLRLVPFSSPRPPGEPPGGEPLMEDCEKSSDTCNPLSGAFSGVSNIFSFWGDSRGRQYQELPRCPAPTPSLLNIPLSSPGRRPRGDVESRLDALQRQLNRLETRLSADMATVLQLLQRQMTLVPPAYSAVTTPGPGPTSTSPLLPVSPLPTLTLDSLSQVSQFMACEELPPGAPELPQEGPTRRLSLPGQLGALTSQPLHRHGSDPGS
reported_property: inhibition at 30 µM (%)
Your answer should be a plain number; it is taken to be in %.

(Q) GET inhibition at 30 µM | system: hERG (Homo sapiens (Human)) | item: Oc1ccc2oc3c(c2c1)CCN1CCCC3C1 (stereo not shown) [drawing 171]
(A) 38

###

molecular target: rVMAT2 (Rattus norvegicus (Rat), UniProt Q01827); assay: rVMAT2 fluorometric screening assay (FFN206 uptake, rVMAT2-HEK cells); type: cell-based; conditions: average ± SEM, n ≥ 4; read-out: IC50 VMAT2 [μM ± SEM]
Sequence (Q01827 whole entry): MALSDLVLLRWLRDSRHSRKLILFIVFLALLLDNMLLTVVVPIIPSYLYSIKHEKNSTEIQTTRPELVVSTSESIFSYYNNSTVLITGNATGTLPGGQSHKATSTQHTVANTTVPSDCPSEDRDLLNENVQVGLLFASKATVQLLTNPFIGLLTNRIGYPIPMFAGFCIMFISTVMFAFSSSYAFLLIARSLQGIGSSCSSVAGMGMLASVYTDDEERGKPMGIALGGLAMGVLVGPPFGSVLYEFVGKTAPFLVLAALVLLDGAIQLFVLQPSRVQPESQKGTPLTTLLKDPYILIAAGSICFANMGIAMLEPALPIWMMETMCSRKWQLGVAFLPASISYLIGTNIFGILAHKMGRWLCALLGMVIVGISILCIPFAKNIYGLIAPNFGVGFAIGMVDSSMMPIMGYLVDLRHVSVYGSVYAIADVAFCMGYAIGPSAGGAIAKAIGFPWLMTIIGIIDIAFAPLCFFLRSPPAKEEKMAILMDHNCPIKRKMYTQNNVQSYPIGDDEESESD
Would you mind telling me the reported IC50 of each entry?
Response body: numeric value in µM, unit text excluded.

(Q) Could you please provide reported IC50 for c1ccc2c3c(oc2c1)CCNCC3 [drawing 165] ? Thanks!
(A) 1.4

(Q) Fill in reported IC50 for this entry: CN1CCCc2oc3ccccc3c2C1 [drawing 168]
(A) 15

(Q) Specify reported IC50 for the compound shown: c1ccc2c3c(oc2c1)CCCNC3 [drawing 167]
(A) 0.061

(Q) Fill in reported IC50 for this entry: CN1CCc2oc3ccccc3c2CC1 [drawing 166]
(A) 4.9

###

For each of the compounds below, state its Emax at 10 µM.
target: 5-HT2C (Homo sapiens (Human), UniProt P28335); test: 5-HT2C agonist (IP1) assay, HEK-293 cells (commercial); assay type: cell-based; details: HEK293; Table 2; at 10 μM; read-out: % of control agonist maximal response (5-HT2C)
Sequence (P28335 whole entry, looked up): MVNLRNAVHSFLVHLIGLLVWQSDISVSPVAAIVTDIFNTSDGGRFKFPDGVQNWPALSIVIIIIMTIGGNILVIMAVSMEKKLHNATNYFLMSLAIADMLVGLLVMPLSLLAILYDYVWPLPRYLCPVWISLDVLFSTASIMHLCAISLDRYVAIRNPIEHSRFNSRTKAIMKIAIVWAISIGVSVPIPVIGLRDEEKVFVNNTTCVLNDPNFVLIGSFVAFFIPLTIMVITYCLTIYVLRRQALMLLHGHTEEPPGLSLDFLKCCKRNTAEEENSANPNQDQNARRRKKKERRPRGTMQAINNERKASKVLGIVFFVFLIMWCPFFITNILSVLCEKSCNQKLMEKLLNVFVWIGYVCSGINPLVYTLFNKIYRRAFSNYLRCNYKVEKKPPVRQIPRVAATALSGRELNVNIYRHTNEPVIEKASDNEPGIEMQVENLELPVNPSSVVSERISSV
Provide the reading as a plain figure in %.

(Q) Given CN1CCCc2oc3ccccc3c2C1 [drawing 164] , respond with its Emax at 10 µM.
(A) 44

(Q) Kindly indicate its recorded Emax at 10 µM. Item: CN1CCc2oc3ccccc3c2CC1 [drawing 162]
(A) 99

(Q) Please indicate Emax at 10 µM recorded for c1ccc2c3c(oc2c1)CCCNC3 [drawing 163]
(A) 78

(Q) Note Emax at 10 µM for the compound shown: c1ccc2c3c(oc2c1)CCNCC3 [drawing 161]
(A) 90

###

biological target: UniProt:P28335; experiment: 5-HT2C agonist (IP1) assay, HEK-293 cells (commercial); format: cell-based; details: Table 2; IP1 agonist assay
pEC50: −log10 of the molar value.
reported_property: pEC50

(Q) For the molecule c1ccc2c3c(oc2c1)CCNCC3 [drawing 161] , give its measured pEC50 value.
(A) > 7.00

(Q) Give pEC50 for the following molecule: CN1CCc2oc3ccccc3c2CC1 [drawing 162]
(A) ~6.70

(Q) Give recorded pEC50. c1ccc2c3c(oc2c1)CCCNC3 [drawing 163]
(A) ~5.89

(Q) For the molecule CN1CCCc2oc3ccccc3c2C1 [drawing 164] , give its measured pEC50 value.
(A) ~4.85
